- assay text: clinical
- run conditions: human, in vivo, iv
Just a reminder that ties go to false: only MRT strictly below 7 h counts as true.

[[record]]
compound = "O=C1Cc2cc(CCN3CCN(c4nsc5ccccc45)CC3)c(Cl)cc2N1"
group_label = "true"

[[record]]
compound = "O=C(Cc1cccs1)N[C@@H]1C(=O)N2C(C(=O)[O-])=C(C[n+]3ccccc3)CS[C@H]12"
group_label = "true"

[[record]]
compound = "C[C@@H](O)[C@H]1C(=O)N2C(C(=O)O)=C(S[C@H]3C[C@@H](C(=O)N4CC[C@H](NC(=O)CNC(=N)N)C4)N(C)C3)[C@H](C)[C@H]12"
group_label = "true"

[[record]]
compound = "COc1cc([C@@H]2c3cc4c(cc3[C@@H](O[C@@H]3O[C@@H]5CO[C@@H](c6cccs6)O[C@H]5[C@H](O)[C@H]3O)[C@H]3COC(=O)[C@H]23)OCO4)cc(OC)c1O [TENIPOSIDE]"
group_label = "false"

[[record]]
compound = "CCN(CC)CCCC(C)Nc1c2ccc(Cl)cc2nc2ccc(OC)cc12 (configuration not stated)"
group_label = "false"


Note: attention shifts to another entry.
For this compound, is MRT lower than 7 h? C#C[C@]1(O)CC[C@H]2[C@@H]3CCc4cc(OS(=O)(=O)O)ccc4[C@H]3CC[C@@]21C false
